Recorded values, source patent US20150284381A1.

Target: recombinant human GST-Syk (Homo sapiens)
Experiment: Homogeneous Time-Resolved Fluorescence (HTRF) assay for the recombinant human Syk enzyme
Conditions: recombinant human GST-Syk 5 pM, ATP 25 μM, 45 min at rt, read-out: rhSyk
Experimental: Homogeneous Time-Resolved Fluorescence (HTRF) Assay for the Recombinant Human Syk Enzyme A recombinant GST-hSyk fusion protein was used to measure potency of compounds to inhibit human Syk activity. […] The resulting HTRF signal was measured after 30 minutes on a EnVision (Perkin-Elmer) reader using a time-resolved fluorescence protocol. […]
Give measured pIC50 for each item. Keep answers brief.
Note on pIC50: it is the negative log10 of concentration, concentration in mol/L.

Task: Fill in the blank: the reported pIC50 of Cc1cc(Nc2cc(-c3cn[nH]c3)ccn2)nc(-c2cnc(C3(O)CCCc4cc(C(=O)N(C)C)ccc43)s2)c1 (single isomer, unassigned) [Example 4C-1] is ____.
Result: 8.98

Task: Fill in the blank: the reported pIC50 of Cc1cc(Nc2cc(C(F)(F)F)ccn2)nc(-c2cnc([C@@]3(O)CCCc4c3ccc(C(=O)O)c4O)s2)c1 (single isomer, unassigned) [Example 7A] is ____.
Result: 8.34

Task: Fill in the blank: the reported pIC50 of Cc1cc(Nc2cc(C3CCCC(C)C3)ccn2)nc(-c2cnc([C@@]3(O)CCCc4cc(C(=O)O)ccc43)s2)c1 (stereo partly shown) is ____.
Result: 8.74

Task: Fill in the blank: the reported pIC50 of COC(=O)c1ccc2c(c1)CCCC2(O)c1ncc(-c2cc(C)cc(Nc3cc(-c4cn[nH]c4)ccn3)n2)s1 (stereo not shown) is ____.
Result: 8.62

Task: Fill in the blank: the reported pIC50 of `Cc1cc(Nc2cc(C3CC3)ccn2)nc(-c2cnc([C@@]3(O)CCc4cc(C(=O)O)ccc43)s2)c1` is ____.
Result: 9.26

Task: Fill in the blank: the reported pIC50 of `CCC(CC)c1ccnc(Nc2cc(C)cc(-c3cnc([C@@]4(O)CCCc5cc(C(=O)O)ccc54)s3)n2)c1` is ____.
Result: 9.30

Task: Fill in the blank: the reported pIC50 of `COc1ccnc(Nc2cc(C)cc(-c3cnc([C@@]4(O)CCc5cc(C(=O)O)ccc54)s3)n2)c1` is ____.
Result: 9.80

Task: Fill in the blank: the reported pIC50 of Cc1cc(Nc2cc(C3CC3)ccn2)nc(-c2cnc(C3(O)CCCc4cc(C(=O)O)c(F)cc43)s2)c1 (single isomer, unassigned) [Example 1G] is ____.
Result: 8.37

Task: Fill in the blank: the reported pIC50 of Cc1cc(Nc2cc(C3CC3)ccn2)nc(-c2cnc(C3(O)CCCc4cc(C(=O)O)c(F)cc43)s2)c1 (single isomer, unassigned) [Example 1H] is ____.
Result: 11.70

Task: Fill in the blank: the reported pIC50 of Cc1cc(Nc2cc(C(C)F)ccn2)nc(-c2cnc(C3(O)CCCc4cc(C(=O)O)ccc43)s2)c1 (single isomer, unassigned) [Example 8C] is ____.
Result: 8.70

Task: Fill in the blank: the reported pIC50 of `CCOc1ccnc(Nc2cc(C)cc(-c3cnc([C@@]4(O)CCCc5cc(C(=O)O)ccc54)s3)n2)c1` is ____.
Result: 9.80

Task: Fill in the blank: the reported pIC50 of `Cc1cc(Nc2cc(-c3cn[nH]c3)ccn2)nc(-c2cnc([C@@]3(O)CCc4cc(C(=O)O)ccc43)s2)c1` is ____.
Result: 10.40

Task: Fill in the blank: the reported pIC50 of Cc1cc(Nc2cc(C(C)F)ccn2)nc(-c2cnc([C@@]3(O)CCc4cc(C(=O)O)ccc43)s2)c1 (single isomer, unassigned) [Example 2K] is ____.
Result: 10.30
